Target: 3',5'-cyclic-AMP phosphodiesterase 4B (Homo sapiens)
Sequence (Q07343 whole entry): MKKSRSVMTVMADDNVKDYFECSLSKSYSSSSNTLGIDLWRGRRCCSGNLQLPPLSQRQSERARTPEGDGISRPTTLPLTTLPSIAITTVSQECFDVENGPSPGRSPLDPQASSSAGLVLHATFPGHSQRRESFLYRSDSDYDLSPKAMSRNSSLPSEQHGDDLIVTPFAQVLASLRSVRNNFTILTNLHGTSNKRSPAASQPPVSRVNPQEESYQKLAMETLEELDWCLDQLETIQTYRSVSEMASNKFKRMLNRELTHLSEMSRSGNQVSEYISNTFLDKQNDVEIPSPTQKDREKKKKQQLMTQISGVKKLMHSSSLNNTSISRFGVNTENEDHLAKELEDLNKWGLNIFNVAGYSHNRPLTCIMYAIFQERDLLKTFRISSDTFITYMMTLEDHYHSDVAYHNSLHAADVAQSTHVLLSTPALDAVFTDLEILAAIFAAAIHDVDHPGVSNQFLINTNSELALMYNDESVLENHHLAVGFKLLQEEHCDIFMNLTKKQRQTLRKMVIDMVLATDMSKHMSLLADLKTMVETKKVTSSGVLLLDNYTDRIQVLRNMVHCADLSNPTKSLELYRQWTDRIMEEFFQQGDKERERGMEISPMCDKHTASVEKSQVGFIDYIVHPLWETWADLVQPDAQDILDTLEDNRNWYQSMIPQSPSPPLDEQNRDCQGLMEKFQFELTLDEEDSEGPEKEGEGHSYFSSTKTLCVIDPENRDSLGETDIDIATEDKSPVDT
Test: Inhibition of PDE4B expressed in HEK293 cells assessed as fold reduction in forskolin-stimulated cAMP production pretreated for 30 mins measured 4 hrs after forskolin challenge by luciferase reporter gene assay
Test Readout: EC50 (nM)
Please respond with the number in nM and leave the unit unwritten.

The reported value for `COc1ccc2c(-c3nc4ccccc4cc3C#N)c[nH]c2c1` in terms of EC50 is 890
